System: Escherichia coli TOP10
MEASUREMENT_NOTES: shrunken log2 fold change of peptide-encoding DNA abundance (4.5 h post-induction vs induction); higher = less antimicrobial activity (less host growth inhibition)
DETAILS: time post-induction: 4.5 h; library: site-saturation at positions 5, 18, 19, 20
Reported shrunken log2 fold change values follow for various sequences

The examples below pair each entry with its known result.
# SEQUENCE_INPUT, RECORDED_MEASUREMENT
data = [
    ("RRIRWRPPRLPRPRPRPFFSPRP", -0.101),
    ("RRIRQRPPRLPRPRPRPYQRPRP", -0.52),
]

Request: State its shrunken log2 fold change for this sequence: `RRIRCRPPRLPRPRPRPWYLPRP`
Response: -0.0282

Request: State its shrunken log2 fold change for this sequence: `RRIRNRPPRLPRPRPRPQDWPRP`
Response: -0.133

Request: State its shrunken log2 fold change for this sequence: `RRIRCRPPRLPRPRPRPWDEPRP`
Response: 0.247

Request: State its shrunken log2 fold change for this sequence: `RRIRWRPPRLPRPRPRPCSIPRP`
Response: -0.134

Request: State its shrunken log2 fold change for this sequence: `RRIRDRPPRLPRPRPRPECSPRP`
Response: 0.0314

---

System: Escherichia coli TOP10
MEASUREMENT_NOTES: shrunken log2 fold change of peptide-encoding DNA abundance (4.5 h post-induction vs induction); higher = less antimicrobial activity (less host growth inhibition)
DETAILS: time post-induction: 4.5 h; library: site-saturation at positions 5, 18, 19, 20
Threshold rule: shrunken log2 fold change greater than or equal to -0.02 is label 1; below that, label 0.

Answered cases to consult:
# SEQUENCE_INPUT, CLASS_LABEL
rows = [
    ("RRIRRRPPRLPRPRPRPGMIPRP", "label 1"),
    ("RRIRPRPPRLPRPRPRPHHPPRP", "label 0"),
    ("RRIRVRPPRLPRPRPRPRCSPRP", "label 0"),
    ("RRIRARPPRLPRPRPRPDAMPRP", "label 1"),
    ("RRIRERPPRLPRPRPRPAEIPRP", "label 0"),
    ("RRIRWRPPRLPRPRPRPLVFPRP", "label 1"),
]

Request: State whether the measured shrunken log2 fold change reaches -0.02, counting equality as reaching it, for `RRIRVRPPRLPRPRPRPCTFPRP`
Response: label 0

Request: State whether the measured shrunken log2 fold change reaches -0.02, counting equality as reaching it, for `RRIRDRPPRLPRPRPRPESMPRP`
Response: label 1

Request: State whether the measured shrunken log2 fold change reaches -0.02, counting equality as reaching it, for `RRIRARPPRLPRPRPRPKVWPRP`
Response: label 1

---

System: Escherichia coli TOP10
MEASUREMENT_NOTES: shrunken log2 fold change of peptide-encoding DNA abundance (4.5 h post-induction vs induction); higher = less antimicrobial activity (less host growth inhibition)
DETAILS: time post-induction: 4.5 h; library: site-saturation at positions 5, 18, 19, 20
Class assignment keyed on shrunken log2 fold change, ranges LOW (below -0.1), MID (-0.1 to below 0.05), HIGH (0.05 or more)

# SEQUENCE_INPUT, CLASS_LABEL
data = [
    ("RRIRYRPPRLPRPRPRPSDRPRP", "LOW"),
    ("RRIRKRPPRLPRPRPRPMCRPRP", "HIGH"),
    ("RRIRWRPPRLPRPRPRPQCCPRP", "MID"),
    ("RRIRARPPRLPRPRPRPHDVPRP", "MID"),
    ("RRIRGRPPRLPRPRPRPCSYPRP", "HIGH"),
]

Request: Please report the category associated with `RRIRARPPRLPRPRPRPQCGPRP` , nothing else.
Response: HIGH

Request: Please report the category associated with `RRIRCRPPRLPRPRPRPWMVPRP` , nothing else.
Response: LOW

Request: Please report the category associated with `RRIRMRPPRLPRPRPRPWRFPRP` , nothing else.
Response: HIGH

Request: Please report the category associated with `RRIRFRPPRLPRPRPRPQMPPRP` , nothing else.
Response: LOW

Request: Please report the category associated with `RRIRSRPPRLPRPRPRPAAKPRP` , nothing else.
Response: HIGH

Request: Please report the category associated with `RRIRVRPPRLPRPRPRPGSVPRP` , nothing else.
Response: LOW

Request: Please report the category associated with `RRIRCRPPRLPRPRPRPMWGPRP` , nothing else.
Response: LOW

Request: Please report the category associated with `RRIRNRPPRLPRPRPRPDMYPRP` , nothing else.
Response: MID

Request: Please report the category associated with `RRIRKRPPRLPRPRPRPEFNPRP` , nothing else.
Response: HIGH

Request: Please report the category associated with `RRIRPRPPRLPRPRPRPMQDPRP` , nothing else.
Response: MID

Request: Please report the category associated with `RRIRDRPPRLPRPRPRPTMSPRP` , nothing else.
Response: HIGH

---

Tested on: Escherichia coli TOP10
MEASUREMENT_NOTES: shrunken log2 fold change of peptide-encoding DNA abundance (4.5 h post-induction vs induction); higher = less antimicrobial activity (less host growth inhibition)
DETAILS: time post-induction: 4.5 h; library: site-saturation at positions 5, 18, 19, 20
Threshold rule: shrunken log2 fold change greater than or equal to -0.03 is fulfilled; below that, not fulfilled.

Answered cases to consult:
# SEQUENCE_INPUT, CLASS_LABEL
records = [
    ("RRIRERPPRLPRPRPRPQMDPRP", "fulfilled"),
    ("RRIRSRPPRLPRPRPRPDFVPRP", "not fulfilled"),
    ("RRIRGRPPRLPRPRPRPCKIPRP", "not fulfilled"),
    ("RRIRTRPPRLPRPRPRPHNTPRP", "not fulfilled"),
    ("RRIRCRPPRLPRPRPRPGGNPRP", "not fulfilled"),
]

Request: State whether the measured shrunken log2 fold change reaches -0.03, counting equality as reaching it, for `RRIRTRPPRLPRPRPRPRVMPRP`
Response: fulfilled

Request: State whether the measured shrunken log2 fold change reaches -0.03, counting equality as reaching it, for `RRIRWRPPRLPRPRPRPMNQPRP`
Response: not fulfilled

Request: State whether the measured shrunken log2 fold change reaches -0.03, counting equality as reaching it, for `RRIRGRPPRLPRPRPRPWWNPRP`
Response: not fulfilled

Request: State whether the measured shrunken log2 fold change reaches -0.03, counting equality as reaching it, for `RRIRDRPPRLPRPRPRPKPHPRP`
Response: fulfilled

Request: State whether the measured shrunken log2 fold change reaches -0.03, counting equality as reaching it, for `RRIRMRPPRLPRPRPRPTLRPRP`
Response: fulfilled

Request: State whether the measured shrunken log2 fold change reaches -0.03, counting equality as reaching it, for `RRIRQRPPRLPRPRPRPALHPRP`
Response: fulfilled

Request: State whether the measured shrunken log2 fold change reaches -0.03, counting equality as reaching it, for `RRIRQRPPRLPRPRPRPAWAPRP`
Response: fulfilled

Request: State whether the measured shrunken log2 fold change reaches -0.03, counting equality as reaching it, for `RRIRSRPPRLPRPRPRPCQGPRP`
Response: fulfilled

Request: State whether the measured shrunken log2 fold change reaches -0.03, counting equality as reaching it, for `RRIRVRPPRLPRPRPRPPETPRP`
Response: not fulfilled

Request: State whether the measured shrunken log2 fold change reaches -0.03, counting equality as reaching it, for `RRIRHRPPRLPRPRPRPGICPRP`
Response: not fulfilled

Request: State whether the measured shrunken log2 fold change reaches -0.03, counting equality as reaching it, for `RRIRYRPPRLPRPRPRPSEAPRP`
Response: not fulfilled

Request: State whether the measured shrunken log2 fold change reaches -0.03, counting equality as reaching it, for `RRIRIRPPRLPRPRPRPLHVPRP`
Response: not fulfilled

Request: State whether the measured shrunken log2 fold change reaches -0.03, counting equality as reaching it, for `RRIRYRPPRLPRPRPRPHKTPRP`
Response: not fulfilled

Request: State whether the measured shrunken log2 fold change reaches -0.03, counting equality as reaching it, for `RRIRIRPPRLPRPRPRPGCEPRP`
Response: not fulfilled

Request: State whether the measured shrunken log2 fold change reaches -0.03, counting equality as reaching it, for `RRIRNRPPRLPRPRPRPKWPPRP`
Response: fulfilled

---

Reported shrunken log2 fold change values follow for various sequences
Test system: Escherichia coli TOP10;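 also: peptides expressed intracellularly from a pBAD plasmid library in pooled LB shake-flask culture, induced with 0.3% L-arabinose, DNA abundance read by NGS, three biological replicates, DESeq2 with apeglm shrinkage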
MEASUREMENT_NOTES: shrunken log2 fold change of peptide-encoding DNA abundance (4.5 h post-induction vs induction); higher = less antimicrobial activity (less host growth inhibition)
DETAILS: time post-induction: 4.5 h; library: site-saturation at positions 5, 18, 19, 20
Response field accepts a number only; no unit should be typed.

The examples below pair each entry with its known result.
# SEQUENCE_INPUT, shrunken log2 fold change
rows = [
    ("RRIRIRPPRLPRPRPRPPALPRP", 0.0147),
    ("RRIRTRPPRLPRPRPRPANQPRP", -0.102),
]

Request: State its shrunken log2 fold change for this sequence: `RRIRCRPPRLPRPRPRPFPKPRP`
Response: 0.131

Request: State its shrunken log2 fold change for this sequence: `RRIRQRPPRLPRPRPRPNASPRP`
Response: -0.015

Request: State its shrunken log2 fold change for this sequence: `RRIRARPPRLPRPRPRPQYFPRP`
Response: -0.153
